meta.source: paper PMC12136788

# assay-system: T1, UNK ZnF1-3 (human, UniProt Q9C0B0 31-174)
# T1 sequence: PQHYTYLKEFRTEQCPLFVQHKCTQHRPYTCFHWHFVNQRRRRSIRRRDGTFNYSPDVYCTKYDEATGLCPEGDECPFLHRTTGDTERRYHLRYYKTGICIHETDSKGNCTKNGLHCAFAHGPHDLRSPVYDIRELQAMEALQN
# assay-protocol: nsRBNS (natural sequence RNA bind-n-seq); RBNS binding buffer (assumed for nsRBNS): 25 mM Tris pH 7.5, 150 mM KCl, 3 mM MgCl2, 0.01% Triton X-100, 500 ug/ml BSA, 20 U/ml SUPERase-In, 4 C; UNK is unkempt and MSI1 is Musashi-1; names of the RNAs are library labels; protein concentration not given here; high values mean tight binding
The full ranking holds about 24,000 sequences; the median of “enrichment r” is about 0.99, and the highest 2% start at about 3.7. For the sample, the highest values were picked, then their nearest neighbours and some sequences at random.
Overview of recorded log10 binding signal for various binders
property-measured: log10 binding signal (log10 of the value in enrichment R)

- chr11:100577090:100577091:-_ENSMUSG00000019173_ENSMUST00000107364|mus_hu|motif|central (ssRNA) RNA: GGGAGUUCUACAGUCCGACGAUCCUGCACUGACCCCACUGUCCCCAUAUACAAGGGUUGGGGGGCAAGAGCAUGUGGCGGCUCCCAGCAAGGGAAAAUGGGAGAGCAGUAGAAAGGGGAGGAAGUGGGAAGAGCAGAAGAUCACAACAGAGGAUUGAGCAUCA: 0.29
- chr19:8913615:8913616:-_ENSMUSG00000071658_ENSMUST00000096259|mus_hu|mus_mus_mus_hu_False|48_78 (ssRNA) RNA: GGGAGUUCUACAGUCCGACGAUCAGGGUACCAAAACCUUCUGCCUGAAAUGGGUGCCCCACCCUGCAGGGAGUUGCAGCUGAAAGUAUCCGUAGCAGAAGCAGUGACUAUACGAAAGGAGGCCCCUGGGGAGGGCCAGGCCAGCAACAGAGGAUUGAGCAUCA: 0.09
- 110847190_110847310_5644_3pUTR_ENSMUSG00000021700_ENSMUST00000167824|mouse|control|control (ssRNA) RNA: GGGAGUUCUACAGUCCGACGAUCUAGUUGCUGAGGGGAACUGAAGAAUGAGGCAAUGCUGUUCUGUGGGGAUAGUGCUUUUAGAAUAUCCUUAAUCAUUUUUUUUUAAAAAACAUGUGGCAGUAUAAAAGGACUACACAAUGACAACAGAGGAUUGAGCAUCA: 0.22
- chrX:15845472:15845473:-_ENSG00000182287_ENST00000329235|hu_hu|motif|central (ssRNA) RNA: GGGAGUUCUACAGUCCGACGAUCCCACAAGAAGUCAUCAACAAGGGAGGAGAGUUAUGUCAGUCCAAUUUCUUCAAGAACACGGCGUGGGGUUUCAGCUUCCUCCUGCAGUAGAUCAGCCUGCUCAAUUGCUUUAAGGACAUUCAACAGAGGAUUGAGCAUCA: 0.18
- 201281127_201284068_384_CDS_ENSG00000196141_ENST00000360760|human|control|control (ssRNA) RNA: GGGAGUUCUACAGUCCGACGAUCCGGCUGCAGGGGCCCUGCCUCAGGCCUCUCCACCUUGUCUUUAGCAUCUUUGUUGCCUUGAUGCUGCUUGGACUUGCUUCUUUUUCUUUUAUUGUUCUUCUUUUUUCCUGUCAUAUUCCACAACAGAGGAUUGAGCAUCA: -0.51
- chr1:163117127:163117128:-_ENSG00000143248_ENST00000313961|hu_mus|hu_hu_hu_mus_False|38_78 (ssRNA) RNA: GGGAGUUCUACAGUCCGACGAUCUGCUACAAAGGAUGUAACUCAACUCACAGGGCAUGAUUUCAUAGCCUGACCAGAUGACUACUUGAUUAGCUCCUGAUAAAACUCAGAGCGCACAAAGCGGGGCAGAGAAUCCUUCUCCAUCAACAGAGGAUUGAGCAUCA: -0.01
- chr8:96496865:96496866:-_ENSMUSG00000031751_ENSMUST00000053766|mus_hu|motif|central (ssRNA) RNA: GGGAGUUCUACAGUCCGACGAUCGCAGUCCAGUCAACACCAGAAGAGAUCAUACCUACAGUUAAAAUUUGCAGUGUUUCGGAGGGGAAGAGAAAUGUCACAUAGAAAGUAUUACAAAGAAGGAUUAAAUUUAUCAGCUGUCCACAACAGAGGAUUGAGCAUCA: 0.55
